# Study System: human NaV1.8 (Homo sapiens)
# Construct: The following NaV1.8 recombinant cell line was used for recordings: HEK-NaV1.8 (NM 006514.1); expressed in transfected cells; host or cells: HEK (recombinant cell line HEK-NaV1.8)
# Sequence (Q9Y5Y9 whole entry): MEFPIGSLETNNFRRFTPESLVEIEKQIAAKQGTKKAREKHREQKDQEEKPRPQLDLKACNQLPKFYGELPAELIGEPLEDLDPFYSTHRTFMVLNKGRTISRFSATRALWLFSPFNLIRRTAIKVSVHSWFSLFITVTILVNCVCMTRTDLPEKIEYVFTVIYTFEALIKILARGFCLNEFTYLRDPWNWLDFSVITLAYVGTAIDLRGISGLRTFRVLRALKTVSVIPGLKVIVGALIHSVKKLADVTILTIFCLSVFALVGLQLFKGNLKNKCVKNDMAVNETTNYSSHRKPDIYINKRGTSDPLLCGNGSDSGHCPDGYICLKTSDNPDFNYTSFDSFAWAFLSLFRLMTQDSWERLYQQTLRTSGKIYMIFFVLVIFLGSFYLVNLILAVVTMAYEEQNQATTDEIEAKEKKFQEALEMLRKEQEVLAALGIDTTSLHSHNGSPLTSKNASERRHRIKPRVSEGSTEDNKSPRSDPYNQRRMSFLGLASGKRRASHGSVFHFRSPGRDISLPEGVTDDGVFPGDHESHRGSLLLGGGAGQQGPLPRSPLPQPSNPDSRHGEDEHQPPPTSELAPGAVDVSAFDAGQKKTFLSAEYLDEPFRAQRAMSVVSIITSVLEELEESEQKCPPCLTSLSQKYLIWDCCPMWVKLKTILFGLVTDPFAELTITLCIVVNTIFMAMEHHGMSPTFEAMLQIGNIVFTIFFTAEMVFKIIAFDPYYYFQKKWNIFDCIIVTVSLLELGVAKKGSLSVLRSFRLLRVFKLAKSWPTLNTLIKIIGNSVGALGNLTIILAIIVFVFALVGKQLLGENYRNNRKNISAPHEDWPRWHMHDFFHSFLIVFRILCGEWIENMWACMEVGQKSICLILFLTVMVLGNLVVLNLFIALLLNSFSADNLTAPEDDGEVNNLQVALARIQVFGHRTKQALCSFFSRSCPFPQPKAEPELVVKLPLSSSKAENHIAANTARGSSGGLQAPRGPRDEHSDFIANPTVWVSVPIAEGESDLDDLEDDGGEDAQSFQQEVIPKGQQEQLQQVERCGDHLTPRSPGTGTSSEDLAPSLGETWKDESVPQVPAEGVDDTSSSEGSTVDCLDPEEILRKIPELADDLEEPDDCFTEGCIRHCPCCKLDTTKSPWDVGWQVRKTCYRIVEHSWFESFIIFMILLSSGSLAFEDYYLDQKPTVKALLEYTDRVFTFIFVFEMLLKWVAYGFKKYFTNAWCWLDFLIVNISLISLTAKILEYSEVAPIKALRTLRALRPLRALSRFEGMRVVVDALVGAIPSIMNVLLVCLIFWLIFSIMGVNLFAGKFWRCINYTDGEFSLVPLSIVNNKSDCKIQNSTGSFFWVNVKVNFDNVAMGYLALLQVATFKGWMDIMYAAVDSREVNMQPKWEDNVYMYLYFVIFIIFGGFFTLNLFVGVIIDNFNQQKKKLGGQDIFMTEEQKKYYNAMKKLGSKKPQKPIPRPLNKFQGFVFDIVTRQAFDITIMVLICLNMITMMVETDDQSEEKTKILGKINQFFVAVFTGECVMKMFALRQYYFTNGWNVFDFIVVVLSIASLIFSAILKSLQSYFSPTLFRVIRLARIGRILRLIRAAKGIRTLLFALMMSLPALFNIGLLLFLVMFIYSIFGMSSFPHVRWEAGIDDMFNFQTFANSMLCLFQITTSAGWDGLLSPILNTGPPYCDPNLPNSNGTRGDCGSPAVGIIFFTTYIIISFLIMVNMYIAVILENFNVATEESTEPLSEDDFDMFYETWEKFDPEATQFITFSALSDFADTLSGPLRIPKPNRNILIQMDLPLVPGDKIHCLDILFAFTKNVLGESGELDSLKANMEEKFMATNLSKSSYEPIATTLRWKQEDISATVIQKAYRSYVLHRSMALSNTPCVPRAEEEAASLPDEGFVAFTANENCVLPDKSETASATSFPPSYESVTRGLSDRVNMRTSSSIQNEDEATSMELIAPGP
# Sequence (Q9NY72 23-215 partner): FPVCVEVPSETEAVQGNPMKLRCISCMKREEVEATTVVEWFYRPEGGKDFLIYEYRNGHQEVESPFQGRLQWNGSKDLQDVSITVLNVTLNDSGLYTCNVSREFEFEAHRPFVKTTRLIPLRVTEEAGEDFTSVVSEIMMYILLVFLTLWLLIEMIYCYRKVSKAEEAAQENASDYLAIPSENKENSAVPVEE
# Test Protocol: Electrophysiology: automated whole-cell voltage-clamp (patch clamp, Qube384) recordings of sodium currents in HEK-NaV1.8 cells
# Assay type: cell-based
# Measurement Setup: potency data either taken from inactivated or resting state, read-out: Potency category (human NaV1.8 IC50)
Assay Endpoint: IC50

Here is how some compounds turned out for IC50.
>>> reading("Cc1nn(CC2CCC(F)(F)CC2)c(C(=O)Nc2ccnc(C#N)c2)c1C [SC-231]")
"1 to 10 µM"
>>> reading("CS(=O)(=O)c1cccc(NC(=O)c2cc(C(F)(F)F)nn2CC2CCC(F)(F)CC2)c1 [SC-02]")
"0.1 to 1 µM"
>>> reading("NC(=O)c1cc(NC(=O)c2c(C(F)(F)F)c(C(F)F)nn2CC2CC(F)(F)C2)ccc1F [SC-141]")
"≤ 0.1 µM"
>>> reading("CS(=O)(=O)c1cc(NC(=O)c2c(C(F)(F)F)c(C3CC3)nn2CC2CCCO2)ccn1 (stereo not shown) [SC-263]")
"0.1 to 1 µM"
>>> reading("Cc1c([C@H](C)C(F)F)nn(CC2CC(F)(F)C2)c1C(=O)Nc1ccnc(C(N)=O)c1 [SC-192b]")
"0.1 to 1 µM"
>>> reading("Cc1c(C(C)(F)F)nn(CC2C[C@H]2C(F)F)c1C(=O)Nc1ccnc(S(C)(=O)=O)c1 (stereo in doubt) [SC-207]")
"0.1 to 1 µM"

*Q* GET /values?readout=IC50&item= CS(=O)(=O)n1cc(NC(=O)c2c(C(F)(F)F)cnn2CC2CCCCC2)cn1 [SC-36]
*A* 0.1 to 1 µM

*Q* GET /values?readout=IC50&item= CS(=O)(=O)c1cccc(NC(=O)c2c(F)cnn2CC2CCCCC2)c1 [SC-08]
*A* 1 to 10 µM

*Q* GET /values?readout=IC50&item= CS(=O)(=O)c1cccc(NC(=O)c2cc(C(F)(F)F)nn2CC2CCCC2)c1 [SC-03]
*A* 0.1 to 1 µM

*Q* GET /values?readout=IC50&item= NC(=O)c1cc(NC(=O)c2c(Cl)c(C(F)(F)F)nn2CC2CCC(F)(F)C2)ccn1 (single isomer, unassigned) [SC-160a]
*A* ≤ 0.1 µM

*Q* GET /values?readout=IC50&item= NC(=O)c1cc(NC(=O)c2c(C(F)(F)F)c(C3CC3)nn2C[C@@H]2CO[C@H](C(F)(F)F)C2)ccn1 (single isomer, unassigned) [SC-148a]
*A* ≤ 0.1 µM

*Q* GET /values?readout=IC50&item= Cc1c(C(C)(F)F)nn(C[C@H]2C[C@@H](F)C2)c1C(=O)Nc1ccnc(C(N)=O)c1 [SC-301]
*A* 0.1 to 1 µM

*Q* GET /values?readout=IC50&item= Cc1nn(CC2CCC(F)(F)CC2)c(C(=O)Nc2ccnc(C(N)=O)c2)c1C(F)(F)F [SC-84]
*A* ≤ 0.1 µM

* * *

Recorded IC50 for the following molecules
# Study System: human NaV1.8 (Homo sapiens)
# Construct: The following NaV1.8 recombinant cell line was used for recordings: HEK-NaV1.8 (NM 006514.1)
# Test Protocol: Electrophysiology: automated whole-cell voltage-clamp (patch clamp, Qube384) recordings of sodium currents in HEK-NaV1.8 cells
# Measurement Setup: potency data either taken from inactivated or resting state, read-out: Potency category (human NaV1.8 IC50)

Here is how some molecules turned out for IC50.
>>> reading("Cc1c(C(C)(F)F)nn(CC2(C(F)(F)F)CC(F)(F)C2)c1C(=O)Nc1ccnc(C(N)=O)c1")
"≤ 100 nM"
>>> reading("CC(F)(F)c1nn(CC2CCC(F)(F)C2)c(C(=O)Nc2ccnc(C(N)=O)c2)c1Cl (single isomer, unassigned) [SC-149a]")
"≤ 100 nM"
>>> reading("Cc1c(C(C)(F)F)nn(C[C@H]2CCC(F)(F)C2)c1C(=O)Nc1cccc(S(N)(=O)=O)c1 (single isomer, unassigned) [SC-296b]")
"≤ 100 nM"
>>> reading("NC(=O)c1cc(NC(=O)c2c(C(F)(F)F)c(C3CC3)nn2CC2CCC(F)(F)C2)ccn1 (single isomer, unassigned) [SC-129b]")
"≤ 100 nM"

*Q* GET /values?readout=IC50&item= NC(=O)c1cc(NC(=O)c2c(C(F)(F)F)c(C3CC3)nn2CC2CC2)ccn1
*A* ≤ 100 nM

*Q* GET /values?readout=IC50&item= NC(=O)c1cc(NC(=O)c2c(C(F)(F)F)c(C3CC3)nn2CC2CC(C(F)F)C2)ccn1 (single isomer, unassigned) [SC-221b]
*A* ≤ 100 nM

*Q* GET /values?readout=IC50&item= CS(=O)(=O)c1cccc(NC(=O)c2cc(C(F)(F)F)nn2CC2CCOCC2)c1
*A* 1000 to 10000 nM

*Q* GET /values?readout=IC50&item= CS(=O)(=O)c1cccc(NC(=O)c2cc(C#N)nn2CC2CCCCC2)c1
*A* 100 to 1000 nM

*Q* GET /values?readout=IC50&item= Cc1c(C(C)(F)F)nn(CC2(C)CC(F)(F)C2)c1C(=O)Nc1ccnc(C(N)=O)c1
*A* ≤ 100 nM
